System: myeloid leukemia patient primary cells Pat.14
Assay: area under dose-response curve (viability, 1 nM-10 uM) (fraction (0-1)); higher = more sensitive
Details: 72 h
ENDPOINT LABEL: area under dose-response curve
Quick one: just the number, no unit, thanks!

>  <MOLECULE>
CCC(CC#N)OC(=O)N[C@@H](C)c1cccc(NC(=O)Nc2ccc(-c3cnco3)c(OC)c2)c1 (stereo in doubt) [AVN-944]

>  <area under dose-response curve>
0.167

$$$$
>  <MOLECULE>
O=C(Cc1cccc(OC(F)(F)F)c1)Nc1ccc(CCCCc2nnc(NC(=O)Cc3ccccn3)s2)nn1 [CB-839]

>  <area under dose-response curve>
0.434

$$$$

Now look at this entry.
Note to self: area under dose-response curve recorded for c1ccc2c(c1)SCc1c-2[nH]c2ccccc12 was 0.403
